Measured values drawn from ChEMBL document CHEMBL1126380 for this set.

minimal effective dose reference
# Test system: Rattus norvegicus
# Test Description: Minimum effective dose(ip) required for inhibition of serotonin-induced bradycardic response in the Bezold-Jarisch reflex functional model
# Cond: Rattus norvegicus, ip; read-out: MED
Endpoint: minimal effective dose (mg/kg)

>>> df
                                   compound                tgt  reported
0  COc1cc(N)c(Cl)cc1C(=O)N[C@H]1C2CC3CN(C2)CC31 (stereo not given in full)  Rattus norvegicus      0.01
1  COc1cc(N)c(Cl)cc1C(=O)N[C@@H]1CCN(CCCOc2ccc(F)cc2)C[C@@H]1OC [CISAPRIDE]  Rattus norvegicus         5
2  COc1cc(N)c(Cl)cc1C(=O)N[C@@H]1C2CC3CN(C2)CC31 (stereo not given in full)  Rattus norvegicus      0.01
3  COc1cc(N)c(Cl)cc1C(=O)N[C@@H]1CN2CCC1CC2  Rattus norvegicus       0.3
4  COc1cc(N)c(Cl)cc1C(=O)NC1CCN2CCCC1C2 (stereo not given) [RENZAPRIDE]  Rattus norvegicus      0.25
